# SYSTEM_TESTED: STAC
# EXPERIMENT: pooled miR-30 sensor sort-seq; sequence = guide strand
# ASSAY_CONDITIONS: shRNA
Outcome label depends on sensor-assay potency score (higher = more potent) relative to -0.1: at/above gives MET, below gives NOT MET.

TTTATAGTCCTACTGCTGCTGC    NOT MET
TTGTCAGCACTTTTGCTCCGTA    NOT MET
TTGTACAAGGCAACATAGGTGT    NOT MET
TCTTGAAAGAAAGTGATCGTTT    NOT MET
TATGTAAACACGCTGTTGCTGC    NOT MET

Exercise: State whether the measured sensor-assay potency score (higher = more potent) reaches -0.1, counting equality as reaching it, for `TTGCAGTTTCATGTCTTCGCTG`
Solution: MET

Exercise: Quick check: does `TTTCATGTCTTCGCTGTTGGTT` have sensor-assay potency score (higher = more potent) greater than or equal to -0.1?
Solution: MET

Exercise: Is sensor-assay potency score (higher = more potent) at least -0.1? Consider `TTCTTCTTCAGAACTCACGCAG`
Solution: MET
